Protocol Description: Plasma pharmacokinetics following a single intravenous and subcutaneous injection of a combination of formoterol and budesonide
Assay Context: female, Gottingen, minipig, in vivo, iv, Plasma concentration of formoterol, IV 0.4 μg/kg, combination, female 2-0623, 0 hr
Description: Formoterol fumarate dehydrate and budesonide were formulated in 2% PEG-400 in saline. 1 male and 1 female non-naive Gottingen minipigs (8 to 12 kg upon receipt per protocol) were utilized. The animals were housed individually. […] Plasma samples were analyzed for formoterol and budesonide using a qualified liquid chromatography/mass spectrometry/mass mass spectrometry (LC/MS/MS) method. The lower limit of quantitation (LLOQ) was 1.00 pg/mL for formoterol and 25.0 pg/mL for budesonide. […]
Observation Type: concentration at 0 hr (pg/mL)

COc1ccc(CC(C)NCC(O)c2ccc(O)c(NC=O)c2)cc1 (stereo not shown) [Formoterol, formoterol] : 3.53
